Recorded Dmax, one value per entry.
# study system: BCL6 (Homo sapiens, UniProt P41182)
# Construct: endogenous in cells; host or cells: T47D breast cancer epithelial cells
# test: Immunofluorescence protocol for high content imaging of BCL6 (degradation) in T47D cells, 3 days compound treatment
# Format: cell-based
# condition details: T47D cells, 3 days compound treatment, read-out: Mean Dmax (%)** category

CNC(=O)COc1cc2cc(Nc3nc(N4CCN(C(C)(C)C5CCN(c6cc(F)c7c(c6)CN(C6CCC(=O)NC6=O)C7=O)CC5)CC4)ncc3Cl)ccc2n(C(C)C)c1=O (stereo not shown) [Compound 76] ... 50 to 70%
CNC(=O)COc1cc2cc(Nc3nc(N4CCC(O[C@H]5C[C@H](N6CCC(c7cc8c(cc7F)C(=O)N(C7CCC(=O)NC7=O)C8)CC6)C5)CC4)ncc3Cl)ccc2n(C(C)C)c1=O (stereo partly shown) [Compound 79] ... 50 to 70%
CNC(=O)COc1cc2cc(Nc3nc(N4CCN(CC5CCN(c6c(F)ccc7c6C(=O)N(C6CCC(=O)NC6=O)C7=O)CC5)CC4)ncc3Cl)ccc2n(C)c1=O (stereo not shown) [Compound 35] ... 50 to 70%

Input: # get_value(readout='Dmax', item= CNC(=O)COc1cc2cc(Nc3nc(N4CCN(CC5CCC6(CC5)CN(c5c(OC)ccc7c5C(=O)N(C5CCC(=O)NC5=O)C7=O)C6)CC4)ncc3Cl)ccc2n(C(C)C)c1=O (stereo not shown) [Compound 9] )
Output: < 50%

Input: # get_value(readout='Dmax', item= CNC(=O)COc1cc2cc(Nc3nc(N4CCC(O[C@H]5C[C@H](N6CCN(c7ccc8c(c7F)CN(C7CCC(=O)NC7=O)C8=O)C[C@H]6C)C5)CC4)ncc3Cl)ccc2n(C(C)C)c1=O (stereo partly shown) [Compound 182] )
Output: ≥ 70%

Input: # get_value(readout='Dmax', item= CNC(=O)COc1cc2cc(Nc3nc(N4CCC(O[C@H]5C[C@H](N6CCC(c7ccc8c(c7F)CN(C7CCC(=O)NC7=O)C8=O)C(C)(C)C6)C5)CC4)ncc3Cl)ccc2n(C(C)C)c1=O (stereo partly shown) [Compound 187] )
Output: ≥ 70%

Input: # get_value(readout='Dmax', item= CNC(=O)COc1cc2cc(Nc3nc(N4CCN(C(C)(C)C5CCN(c6ccc7c(c6)CN(C6CCC(=O)NC6=O)C7=O)CC5)CC4)ncc3Cl)ccc2n(C(C)C)c1=O (stereo not shown) [Compound 13] )
Output: ≥ 70%

Input: # get_value(readout='Dmax', item= CNC(=O)COc1cc2cc(Nc3nc(N4CCC(C(C)(C)N5CCC6(CC5)CN(c5ccc7c(c5)CN(C5CCC(=O)NC5=O)C7=O)C6)CC4)ncc3Cl)ccc2n(C(C)C)c1=O (stereo not shown) [Compound 58] )
Output: ≥ 70%

Input: # get_value(readout='Dmax', item= CNC(=O)COc1cc2cc(Nc3nc(N4CCC5(CCN(CC6(F)CCN(c7cc(F)cc8c7CN(C7CCC(=O)NC7=O)C8=O)CC6)CC5)CC4)ncc3Cl)ccc2n(C(C)C)c1=O (stereo not shown) [Compound 109] )
Output: 50 to 70%

Input: # get_value(readout='Dmax', item= CNC(=O)COc1cc2cc(Nc3nc(N4CCC(F)(CN5CC6(CCN(c7cccc8c7CN(C7CCC(=O)NC7=O)C8=O)CC6)C5)CC4)ncc3Cl)ccc2n(C(C)C)c1=O (stereo not shown) [Compound 99] )
Output: 50 to 70%

###

Recorded DC50, one value per entry.
# study system: BCL6 (Homo sapiens)
# Construct: endogenous in cells; host or cells: T47D breast cancer epithelial cells
# test: Immunofluorescence protocol for high content imaging of BCL6 (degradation) in T47D cells, 3 days compound treatment
# Format: cell-based
# condition details: read-out: Mean DC50 (nM)* category

Please review the entries below; each comes with its answer.
CNC(=O)COc1cc2cc(Nc3nc(N4CCC(O[C@H]5C[C@H](N6CC7(CCN(c8ccc9c(c8F)CN(C8CCC(=O)NC8=O)C9=O)CC7)C6)C5)CC4)ncc3Cl)ccc2n(C(C)C)c1=O (stereo partly shown) ... < 10 nM
CNC(=O)COc1cc2c(F)c(Nc3nc(N4CCC(CN5CCC6(CC5)CN(c5ccc7c(c5)C(=O)N(C5CCC(=O)NC5=O)C7=O)C6(C)C)CC4)ncc3Cl)ccc2n(C(C)C)c1=O (stereo not shown) ... < 10 nM
CNC(=O)COc1cc2cc(Nc3nc(N4CCC(OC5CCC6(CC5)CN(c5ccc7c(c5C)CN(C5CCC(=O)NC5=O)C7=O)C6)CC4)ncc3Cl)ccc2n(C(C)C)c1=O (stereo not shown) ... < 10 nM
CNC(=O)COc1cc2cc(Nc3nc(N4CCC(OC5CCC6(CC5)CN(c5c(F)cc7c(c5F)CN(C5CCC(=O)NC5=O)C7=O)C6)CC4)ncc3Cl)ccc2n(C(C)C)c1=O (stereo not shown) ... < 10 nM
CNC(=O)COc1cc2cc(Nc3nc(N4CCC(O[C@H]5C[C@H](N6CC[C@H](c7ccc8c(c7F)CN(C7CCC(=O)NC7=O)C8=O)[C@H](O)C6)C5)CC4)ncc3Cl)ccc2n(C(C)C)c1=O (stereo partly shown) ... < 10 nM

Please find the next compound below.
Input: # get_value(readout='DC50', item= CNC(=O)COc1cc2cc(Nc3nc(N4CCC(O[C@H]5C[C@H](N6CC[C@@H](c7ccc8c(c7F)CN([C@@H]7CCC(=O)NC7=O)C8=O)C(C)(C)C6)C5)CC4)ncc3Cl)ccc2n(C(C)C)c1=O )
Output: < 10 nM

###

Recorded Dmax, one value per entry.
# study system: BCL6 (Homo sapiens)
# Construct: endogenous in cells; host or cells: T47D breast cancer epithelial cells
# test: Immunofluorescence protocol for high content imaging of BCL6 (degradation) in T47D cells, 3 days compound treatment
# Assay type: cell-based
# condition details: T47D cells, 3 days compound treatment, read-out: Mean Dmax (%)** category

Please review the entries below; each comes with its answer.
CNC(=O)COc1cc2cc(Nc3nc(N4CCC(CN5CCC6(CC5)CN(c5cc(OC)c7c(c5)C(=O)N(C5CCC(=O)NC5=O)C7=O)C6)CC4)ncc3Cl)ccc2n(C(C)C)c1=O (stereo not drawn) ... 50 to 70%
CNC(=O)COc1cc2cc(Nc3nc(N4CCCCC4)ncc3Cl)ccc2n(CCOc2ccc3c(c2)C(=O)N(C2CCC(=O)NC2=O)C3=O)c1=O (stereo not drawn) ... 50 to 70%

Please find the next compound below.
Input: # get_value(readout='Dmax', item= CCn1c(=O)c(OCC(=O)NC)cc2cc(Nc3nc(N4CCC(O[C@H]5C[C@H](N6CCC(c7cccc8c7C(=O)N(C7CCC(=O)NC7=O)C8=O)CC6)C5)CC4)ncc3Cl)ccc21 (stereo partly drawn) )
Output: ≥ 70%

###

# study system: BCL6 (Homo sapiens)
# Construct: endogenous in cells; host or cells: T47D breast cancer epithelial cells
# test: Immunofluorescence protocol for high content imaging of BCL6 (degradation) in T47D cells, 3 days compound treatment
# Format: cell-based
# condition details: T47D cells, 3 days compound treatment, read-out: Mean DC50 (nM)* category
# Experimental: Immunofluorescence Protocol for High Content Imaging of BCL6 T47D cells were seeded in 100 μl volume of RPMI1640-10% FBS in a 96-well black/clear bottom plates for adherent lines (Corning #3904). Day 1. T47D breast cancer epithelial cells were seeded at a density so that confluence is ˜70-90% at endpoint. Cells were seeded at 7K/0.1 ml/well the morning prior to the addition of exemplary bifunctional degradation compounds. Day 2. […] Plates were equilibrated to room temperature prior to reading. […]
recorded endpoint: DC50

CNC(=O)COc1cc2cc(Nc3nc(N4CCC5(CCN(CC6CCN(c7cccc8c7CN(C7CCC(=O)NC7=O)C8=O)CC6)C5)C4)ncc3Cl)ccc2n(C(C)C)c1=O (stereo not shown) ... < 10 nM
CNC(=O)COc1cc2cc(Nc3nc(N4CCC(O[C@H]5C[C@H](N6CCN(c7ccc8c(n7)CN(C7CCC(=O)NC7=O)C8=O)CC6)C5)CC4)ncc3Cl)ccc2n(C(C)C)c1=O (stereo partly shown) ... < 10 nM
CNC(=O)COc1cc2cc(Nc3nc(N4CCC5(CC4)CC(CN4CCN(c6cccc7c6CN(C6CCC(=O)NC6=O)C7=O)CC4)C5)ncc3Cl)ccc2n(C(C)C)c1=O (stereo not shown) ... < 10 nM
CNC(=O)COc1cc2c(F)c(Nc3nc(N4CCC(CN5CCC6(CN(c7ccc8c(c7)CN(C7CCC(=O)NC7=O)C8=O)C6)C(F)(F)C5)CC4)ncc3Cl)ccc2n(C(C)C)c1=O (stereo not shown) ... < 10 nM

Input: Lab note: need DC50 for CNC(=O)COc1cc2cc(Nc3nc(N4CCC5(CC4)CC(C(=O)N4CCC(c6cccc7c6CN(C6CCC(=O)NC6=O)C7=O)CC4)C5)ncc3Cl)ccc2n(C(C)C)c1=O (stereo not shown) on BCL6 (Homo sapiens), anyone have it?
Output: < 10 nM

Input: Lab note: need DC50 for CNC(=O)COc1cc2cc(Nc3nc(N4CCC(F)(CN5CCC6(CC5)CCN(c5c(F)ccc7c5C(=O)N(C5CCC(=O)NC5=O)C7)CC6)CC4)ncc3Cl)ccc2n(C(C)C)c1=O (stereo not shown) on BCL6 (Homo sapiens), anyone have it?
Output: ≥ 100 nM

Data provenance: patent US11986532B2
